# System: VDR homodimer (NR concentration 270 nM)
# test_method_notes: PBM binding z-score (relative to random genomic background probes); higher = stronger binding; sequences stand for … in GC…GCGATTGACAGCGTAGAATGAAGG
property_label: PBM binding z-score

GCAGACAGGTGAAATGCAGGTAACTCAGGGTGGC	-0.285
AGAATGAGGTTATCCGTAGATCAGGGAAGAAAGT	0.958

Moving on to another sequence below.
Prompt line: API: value(readout= PBM binding z-score, system= VDR homodimer (NR concentration 270 nM), query= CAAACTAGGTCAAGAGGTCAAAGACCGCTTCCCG )
Response line: 3.76

---

# System: FXR:RXRa (NR concentration 270 nM, RXRa partner concentration 90 nM)
# test_method_notes: PBM binding z-score (relative to random genomic background probes); higher = stronger binding; sequences stand for … in GC…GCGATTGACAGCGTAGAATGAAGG
Entries and their PBM binding z-score values follow.
Enter a number only.

Here is how some sequences turned out for PBM binding z-score.
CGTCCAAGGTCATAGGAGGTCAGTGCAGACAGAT	7.64
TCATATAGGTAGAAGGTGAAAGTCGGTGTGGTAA	1.26
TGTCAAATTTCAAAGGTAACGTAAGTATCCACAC	0.556
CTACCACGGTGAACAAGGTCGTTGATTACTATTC	0.517
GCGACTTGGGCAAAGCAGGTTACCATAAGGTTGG	-0.371
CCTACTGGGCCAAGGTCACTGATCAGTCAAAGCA	3.03
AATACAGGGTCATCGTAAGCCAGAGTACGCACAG	7.41
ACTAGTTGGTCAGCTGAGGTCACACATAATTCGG	3.42

Prompt line: Query: PBM binding z-score; subject: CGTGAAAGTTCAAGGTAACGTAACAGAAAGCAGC
Response line: 5.94

Prompt line: Query: PBM binding z-score; subject: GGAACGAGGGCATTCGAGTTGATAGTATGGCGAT
Response line: 1.62

---

Entries and their PBM binding z-score values follow.
# System: PPARg:RXRa (NR concentration 180 nM, RXRa partner concentration 90 nM)
# test_method_notes: PBM binding z-score (relative to random genomic background probes); higher = stronger binding; sequences stand for … in GC…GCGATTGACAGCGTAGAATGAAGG

Here is how some sequences turned out for PBM binding z-score.
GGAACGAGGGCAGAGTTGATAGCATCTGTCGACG	4.04
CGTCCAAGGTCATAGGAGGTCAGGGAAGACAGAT	6.03
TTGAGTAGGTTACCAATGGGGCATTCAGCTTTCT	1.23
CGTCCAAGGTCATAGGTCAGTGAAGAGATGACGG	7.76
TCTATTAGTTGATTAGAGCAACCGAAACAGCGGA	-0.0852

Moving on to another sequence below.
Prompt line: API: value(readout= PBM binding z-score, system= PPARg:RXRa (NR concentration 180 nM, RXRa partner concentration 90 nM), query= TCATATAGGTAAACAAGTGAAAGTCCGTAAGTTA )
Response line: 1.4

---

# Test system: RXRa homodimer (NR concentration 180 nM)
# test_method_notes: PBM binding z-score (relative to random genomic background probes); higher = stronger binding; sequences stand for … in GC…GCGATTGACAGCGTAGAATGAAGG
Tag: yes (1) if measured PBM binding z-score is not below 1, no (0) if it is.

Examples with answers:
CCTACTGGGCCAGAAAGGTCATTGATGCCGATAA	yes (1)
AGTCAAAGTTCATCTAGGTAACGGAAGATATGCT	yes (1)
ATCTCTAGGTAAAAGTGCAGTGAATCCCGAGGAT	no (0)
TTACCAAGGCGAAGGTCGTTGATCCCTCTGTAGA	yes (1)
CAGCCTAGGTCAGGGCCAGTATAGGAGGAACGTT	yes (1)
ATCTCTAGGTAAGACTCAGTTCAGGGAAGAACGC	no (0)
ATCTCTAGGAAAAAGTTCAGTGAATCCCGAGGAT	no (0)
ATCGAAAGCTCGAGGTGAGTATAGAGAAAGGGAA	no (0)

Below: the item to evaluate.
Prompt line: Does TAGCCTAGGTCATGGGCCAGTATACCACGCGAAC have a reported PBM binding z-score of at least 1?
Response line: yes (1)

---

Entries and their PBM binding z-score values follow.
# Test system: RARa:RXR (NR concentration 270 nM, RXRa partner concentration 90 nM)
# test_method_notes: PBM binding z-score (relative to random genomic background probes); higher = stronger binding; sequences stand for … in GC…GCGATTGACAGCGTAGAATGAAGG
Enter a number only.

Here is how some sequences turned out for PBM binding z-score.
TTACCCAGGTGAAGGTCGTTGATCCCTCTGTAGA	1.6
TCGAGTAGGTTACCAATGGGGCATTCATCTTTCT	0.587
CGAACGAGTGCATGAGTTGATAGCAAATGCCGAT	0.133
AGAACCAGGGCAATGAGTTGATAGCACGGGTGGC	-0.324
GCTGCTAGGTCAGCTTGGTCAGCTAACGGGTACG	0.718
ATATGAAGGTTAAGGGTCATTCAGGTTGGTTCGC	6.97
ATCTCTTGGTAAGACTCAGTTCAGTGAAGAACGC	0.274
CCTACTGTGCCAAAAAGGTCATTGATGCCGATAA	5.24

Prompt line: Query: PBM binding z-score; subject: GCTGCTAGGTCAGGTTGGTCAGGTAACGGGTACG
Response line: 0.834

Prompt line: Query: PBM binding z-score; subject: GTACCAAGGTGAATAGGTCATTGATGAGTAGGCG
Response line: 4.41

Prompt line: Query: PBM binding z-score; subject: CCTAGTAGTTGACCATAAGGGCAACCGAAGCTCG
Response line: 0.651

Prompt line: Query: PBM binding z-score; subject: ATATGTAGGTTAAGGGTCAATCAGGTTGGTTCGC
Response line: 5.74

Prompt line: Query: PBM binding z-score; subject: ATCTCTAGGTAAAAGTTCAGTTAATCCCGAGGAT
Response line: 1.85

---

Entries and their PBM binding z-score values follow.
# Tested on: PXR:RXRa (NR concentration 270 nM, RXRa partner concentration 90 nM)
# test_method_notes: PBM binding z-score (relative to random genomic background probes); higher = stronger binding; sequences stand for … in GC…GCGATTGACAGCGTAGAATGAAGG
Enter a number only.

Here is how some sequences turned out for PBM binding z-score.
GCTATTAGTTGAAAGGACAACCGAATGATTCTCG	-0.372
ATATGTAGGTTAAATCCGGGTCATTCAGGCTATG	4.32
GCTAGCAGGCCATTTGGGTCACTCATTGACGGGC	0.252
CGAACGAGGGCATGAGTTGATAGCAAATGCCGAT	0.562
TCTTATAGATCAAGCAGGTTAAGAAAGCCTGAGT	0.691

Prompt line: API: value(readout= PBM binding z-score, system= PXR:RXRa (NR concentration 270 nM, RXRa partner concentration 90 nM), query= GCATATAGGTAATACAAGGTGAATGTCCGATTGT )
Response line: 0.286

Prompt line: API: value(readout= PBM binding z-score, system= PXR:RXRa (NR concentration 270 nM, RXRa partner concentration 90 nM), query= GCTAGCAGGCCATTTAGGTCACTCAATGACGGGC )
Response line: 0.564

Prompt line: API: value(readout= PBM binding z-score, system= PXR:RXRa (NR concentration 270 nM, RXRa partner concentration 90 nM), query= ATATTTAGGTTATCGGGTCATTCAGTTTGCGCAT )
Response line: 3.9

Prompt line: API: value(readout= PBM binding z-score, system= PXR:RXRa (NR concentration 270 nM, RXRa partner concentration 90 nM), query= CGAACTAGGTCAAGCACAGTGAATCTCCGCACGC )
Response line: 1.18

Prompt line: API: value(readout= PBM binding z-score, system= PXR:RXRa (NR concentration 270 nM, RXRa partner concentration 90 nM), query= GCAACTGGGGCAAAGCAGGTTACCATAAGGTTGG )
Response line: 0.339

Prompt line: API: value(readout= PBM binding z-score, system= PXR:RXRa (NR concentration 270 nM, RXRa partner concentration 90 nM), query= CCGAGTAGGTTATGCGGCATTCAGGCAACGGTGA )
Response line: -0.0535

---

# System: PPARg DBDmut:RXRa IVT, anti-PPARg (DBD mutation: PPARg1 K132A/R137A, NR concentration 270 nM, RXRa partner concentration 90 nM)
# test_method_notes: PBM binding z-score (relative to random genomic background probes); higher = stronger binding; sequences stand for … in GC…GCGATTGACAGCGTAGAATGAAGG
property_label: PBM binding z-score
Enter a number only.

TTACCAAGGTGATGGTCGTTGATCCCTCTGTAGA	-0.135
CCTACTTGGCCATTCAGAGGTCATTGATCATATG	1.11
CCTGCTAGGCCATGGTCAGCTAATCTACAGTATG	-0.241

Prompt line: Query: PBM binding z-score; subject: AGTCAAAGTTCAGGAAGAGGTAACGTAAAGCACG
Response line: 0.684

Prompt line: Query: PBM binding z-score; subject: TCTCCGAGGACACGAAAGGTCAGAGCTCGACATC
Response line: 0.778

Prompt line: Query: PBM binding z-score; subject: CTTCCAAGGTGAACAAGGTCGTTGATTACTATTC
Response line: 0.501

Prompt line: Query: PBM binding z-score; subject: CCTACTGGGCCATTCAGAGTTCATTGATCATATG
Response line: -0.222

Prompt line: Query: PBM binding z-score; subject: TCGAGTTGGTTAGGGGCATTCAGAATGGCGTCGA
Response line: -0.765

Prompt line: Query: PBM binding z-score; subject: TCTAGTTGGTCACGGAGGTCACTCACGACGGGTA
Response line: 0.646

Prompt line: Query: PBM binding z-score; subject: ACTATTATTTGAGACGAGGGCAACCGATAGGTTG
Response line: 1.61

Prompt line: Query: PBM binding z-score; subject: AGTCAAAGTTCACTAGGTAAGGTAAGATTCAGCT
Response line: 1.06
